Test system: female VICs
assay-remarks: percent αSMA GMI reduction, female VICs on stiff hydrogels
Type: cell-based, pig
assay-setup: from dose response curves
Provide the recorded EC1 for the entries that follow.
One number for each entry, in µM.

O=C(COCC(=O)Nc1ccc(Cl)cc1C(=O)O)Nc1cccc(-c2ccoc2)c1    24.8
NS(=O)(=O)Oc1ccc2c3c(c(=O)oc2c1)CCCCC3    74.4
CCCCc1nc(Cl)c(CO)n1Cc1ccc(-c2ccccc2-c2nn[nH]n2)cc1    154
O=c1cc(N2CCOCC2)oc2c(-c3ccccc3)cccc12    8.63
Fc1ccc(Cl)cc1-c1nc(Nc2ccncc2)c2nccnc2n1    0.0061
C[S+]([O-])c1ccc(-c2nc(-c3ccncc3)c(-c3ccc(F)cc3)[nH]2)cc1 (centres unmarked)    7.56

Please supply EC1 for each of the following items, keeping them in order.
1. C[C@@H](N)[C@H]1CC[C@H](C(=O)Nc2ccncc2)CC1
2. Cc1cncc2cccc(S(=O)(=O)N3CCCNC[C@@H]3C)c12

1.31
0.0765
